Molecular target: Mitogen-activated protein kinase 7 (Homo sapiens)
Sequence (Q13164 whole entry): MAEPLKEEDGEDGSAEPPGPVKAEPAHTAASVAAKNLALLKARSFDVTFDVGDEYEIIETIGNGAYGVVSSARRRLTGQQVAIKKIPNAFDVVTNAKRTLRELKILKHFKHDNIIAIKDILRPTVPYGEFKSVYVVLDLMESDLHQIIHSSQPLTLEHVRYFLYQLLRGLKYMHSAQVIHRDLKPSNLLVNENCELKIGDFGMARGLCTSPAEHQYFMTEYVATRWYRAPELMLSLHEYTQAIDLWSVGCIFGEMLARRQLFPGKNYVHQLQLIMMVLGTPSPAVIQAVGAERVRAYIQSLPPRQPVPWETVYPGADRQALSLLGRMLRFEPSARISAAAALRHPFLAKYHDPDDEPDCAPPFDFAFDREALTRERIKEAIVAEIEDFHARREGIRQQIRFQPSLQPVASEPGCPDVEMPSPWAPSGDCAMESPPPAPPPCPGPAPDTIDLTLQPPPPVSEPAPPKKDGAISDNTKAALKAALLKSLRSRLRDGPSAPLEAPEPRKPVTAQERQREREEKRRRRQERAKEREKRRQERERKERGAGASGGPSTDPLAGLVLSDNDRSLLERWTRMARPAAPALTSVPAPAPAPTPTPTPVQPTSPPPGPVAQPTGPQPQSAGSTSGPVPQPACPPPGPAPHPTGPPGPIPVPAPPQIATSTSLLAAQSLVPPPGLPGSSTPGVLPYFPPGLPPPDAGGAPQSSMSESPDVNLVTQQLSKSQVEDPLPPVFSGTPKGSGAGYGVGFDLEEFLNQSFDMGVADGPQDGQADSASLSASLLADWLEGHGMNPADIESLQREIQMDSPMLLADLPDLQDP
Test: Inhibition of recombinant human GST-tagged ERK5 (1 to 398 assessed as phosphorylated peptide substrate incubated for 60 mins by TR-FRET based biochemical assay

{"Smiles": "Cc1ncsc1-c1ccc(CNC(=O)[C@@H]2C[C@@H](O)CN2C(=O)[C@@H](NC(=O)COCCOCCNC(=O)COc2cnc3c(C4CCN(C(=O)c5ccc(OC(F)(F)F)cc5)CC4)ncnc3c2)C(C)(C)C)cc1", "Measured Target": "Mitogen-activated protein kinase 7 (Homo sapiens)", "IC50, µM": 1.23}

* * *

Test: Solubility of compound in PBS buffer at pH 6.5
Format: physicochemical

{"Smiles": "Cc1ncsc1-c1ccc(CNC(=O)[C@@H]2C[C@@H](O)CN2C(=O)[C@@H](NC(=O)COCCOCCNC(=O)COc2cnc3c(C4CCN(C(=O)c5ccc(OC(F)(F)F)cc5)CC4)ncnc3c2)C(C)(C)C)cc1", "solubility, µg/mL": 7}
